# target.under.test: IRAK4 (Homo sapiens (Human), UniProt Q9NWZ3)
# Sequence (Q9NWZ3 whole entry, species assumed): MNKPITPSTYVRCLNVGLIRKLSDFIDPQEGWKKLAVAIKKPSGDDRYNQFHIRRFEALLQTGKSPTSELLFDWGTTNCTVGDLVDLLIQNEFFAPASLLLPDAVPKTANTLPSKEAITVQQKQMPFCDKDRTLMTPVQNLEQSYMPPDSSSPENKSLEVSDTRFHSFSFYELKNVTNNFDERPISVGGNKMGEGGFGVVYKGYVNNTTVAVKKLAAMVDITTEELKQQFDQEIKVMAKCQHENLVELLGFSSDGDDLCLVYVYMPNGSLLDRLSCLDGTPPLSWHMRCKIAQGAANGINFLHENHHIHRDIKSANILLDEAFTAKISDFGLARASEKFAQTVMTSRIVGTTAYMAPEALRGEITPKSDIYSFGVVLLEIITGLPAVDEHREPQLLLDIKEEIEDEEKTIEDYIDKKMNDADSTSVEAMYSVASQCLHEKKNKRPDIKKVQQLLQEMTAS
# procedure.text: IRAK4 Inhibition Assay
# Format: biochemical
# experimental.setup: ATP 500 μM; IRAK4 0.6 nM; read-out: IRAK4 IC50
IC50 strictly less than 3 nM = met. Otherwise not met.

[[record]]
compound = "CC(C)(O)[C@H](F)CNC(=O)c1cnc(-n2ncc3cc(C#N)c(N)nc32)cc1NC12CC3CC(CC(O)(C3)C1)C2 [Example 632]"
group_label = "met"

[[record]]
compound = "CC(C)(O)[C@H](F)CNC(=O)c1cnc(-n2ccc3cc(C#N)cnc32)cc1N[C@@H]1CCN(C(=O)CC#N)C1 [Example 477]"
group_label = "met"

[[record]]
compound = "CC(C)(O)[C@H](F)CNC(=O)c1cnc(-n2ncc3cc(C#N)cnc32)cc1N[C@H]1CC[C@H](NC(=O)C2CC2)CC1 [Example 623]"
group_label = "not met"

[[record]]
compound = "CC(C)(O)[C@H](F)CNC(=O)c1cnc(-n2ncc3cc(C#N)c(N)nc32)cc1NC1CC1 [Example 631]"
group_label = "not met"

[[record]]
compound = "CC(C)(O)[C@H]1CC[C@H](Nc2cc(-n3ncc4cc(Cl)cnc43)ncc2C(=O)NC[C@@H](F)C(C)(C)O)C1 [Example 628]"
group_label = "not met"

[[record]]
compound = "CC(C)Nc1cc(N2CCc3cc(C#N)cnc32)ncc1C(=O)NC[C@@H](F)C(C)(C)O [Example 567]"
group_label = "not met"

[[record]]
compound = "CC(O)CCNc1cc(-n2ccc3cc(C#N)cnc32)ncc1C(=O)NC[C@@H](F)C(C)(C)O (stereo partly drawn) [Example 422]"
group_label = "met"

[[record]]
compound = "CC(C)(O)[C@H](F)CNC(=O)c1cnc(-n2ncc3cc(C#N)cnc32)cc1NC1CCC(F)(F)C1 (single isomer, unassigned) [Example 614]"
group_label = "not met"

[[record]]
compound = "CC(C)Nc1cc(-n2ccc3cc(C#N)cnc32)ncc1C(=O)N[C@H]1CC[C@@](F)(c2nccn2C)CC1 [Example 420]"
group_label = "not met"

[[record]]
compound = "CS(=O)(=O)NCCNC(=O)c1cnc(-n2ccc3cc(C#N)cnc32)cc1NC1CC1 [Example 453]"
group_label = "not met"

[[record]]
compound = "CCn1nnnc1-c1ccc(Nc2cc(-n3ccc4cc(C#N)cnc43)ncc2C(=O)NC[C@@H](F)C(C)(C)O)cc1 [Example 433]"
group_label = "not met"

[[record]]
compound = "CC(C)(O)[C@H](F)CNC(=O)c1cnc(-n2ccc3cc(C#N)cnc32)cc1N[C@@H]1COC[C@H]1O [Example 455]"
group_label = "met"

[[record]]
compound = "CC(C)Nc1cc(-n2ccc3cc(CNC(=O)OC(C)C)cnc32)ncc1C(=O)NC[C@@H](F)C(C)(C)O [Example 502]"
group_label = "not met"

[[record]]
compound = "CC(C)(O)[C@H](F)CNC(=O)c1cnc(-n2ncc3cc(C#N)cnc32)cc1NC1CN(c2ncc(Cl)cn2)C1 [Example 541]"
group_label = "not met"

[[record]]
compound = "CC(C)(C)OC(=O)N1CC(Nc2cc(-n3ccc4cc(C#N)cnc43)ncc2C(=O)NC[C@@H](F)C(C)(C)O)C1 [Example 457]"
group_label = "not met"


###

# Test system: TLR2 induced IL-6 in peripheral blood mononuclear cells (PBMCs)
# procedure.text: PBMC TLR2 Induced IL-6 Assay
# Format: cell-based, human
# experimental.setup: Homo sapiens, PBMC, PBMC TLR2 Induced IL-6 Assay; lipoteichoic acid stimulation, IL-6 by ELISA; read-out: Cell IC50
pIC50: −log10 of the molar value.
measured.parameter: pIC50

[[record]]
compound_smiles = "COc1cnc2c(cnn2-c2cc(NC(C)C)c(C(=O)NC[C@@H](F)C(C)(C)O)cn2)c1"
assay_result = 6.19

[[record]]
compound_smiles = "CC(C)Nc1cc(-n2ncc3cc(C#N)cnc32)ncc1C(=O)NCCC1(O)CCN(C2COC2)CC1"
assay_result = 6.44

[[record]]
compound_smiles = "CCCNC(=O)c1cnc(-n2ncc3cc(C#N)cnc32)cc1Nc1cnn(CC(F)F)c1"
assay_result = 6.62

[[record]]
compound_smiles = "CC(C)Nc1cc(-n2ncc3cc(C#N)cnc32)ncc1C(=O)NC[C@@H](F)C(C)(C)OC(F)F"
assay_result = 6.38

[[record]]
compound_smiles = "CC[C@@H](C)Nc1cc(-n2ncc3cc(C#N)c(N)nc32)ncc1C(=O)NC[C@@H](F)C(C)(C)O"
assay_result = 7.08

[[record]]
compound_smiles = "CC1(Nc2cc(-n3cnc4cc(C#N)cnc43)ncc2C(=O)NC[C@@H](F)C(C)(C)O)CC1"
assay_result = 6.37

[[record]]
compound_smiles = "CCn1cc(Nc2cc(-n3ccc4cc(C#N)cnc43)ncc2C(=O)NC[C@@H](F)C(C)(C)O)cn1"
assay_result = 8.70

[[record]]
compound_smiles = "CCCn1cc(Nc2cc(-n3ncc4cc(Cl)cnc43)ncc2C(=O)NC[C@@H](F)C(C)(C)O)cn1"
assay_result = 7.39

[[record]]
compound_smiles = "CC(C)Nc1cc(-n2ncc3cc(C#N)cnc32)ncc1C(=O)NCCc1c[nH]cn1"
assay_result = 6.46

[[record]]
compound_smiles = "CC(C)(O)[C@H](F)CNC(=O)c1cnc(-n2ncc3cc(Cl)cnc32)cc1Nc1cnn(CC(F)F)c1"
assay_result = 7.57

[[record]]
compound_smiles = "CC(C)Nc1cc(-n2ncc3cc(Cl)c(N)nc32)ncc1C(=O)NC[C@@H](F)C(C)(C)O"
assay_result = 6.27

[[record]]
compound_smiles = "CNC(=O)c1cnc(-n2ncc3cc(C#N)c(N)nc32)cc1NC(C)C"
assay_result = 6.68

[[record]]
compound_smiles = "CC(C)Nc1cc(-n2ncc3cc(C#N)c(N)nc32)ncc1C(=O)NC[C@@H](F)C(C)(C)O"
assay_result = 7.32

[[record]]
compound_smiles = "Cn1cc(Nc2cc(-n3ncc4cc(C#N)cnc43)ncc2C(=O)NC[C@@H](F)C(C)(C)O)cn1"
assay_result = 6.70


###

# target.under.test: UniProt:Q9NWZ3
# procedure.text: IRAK4 Inhibition Assay
# Assay type: biochemical
# experimental.setup: ATP 500 μM; IRAK4 0.6 nM; read-out: IRAK4 IC50
pIC50: −log10 of the molar value.
measured.parameter: pIC50

[[record]]
molecule = "CC(CCF)Nc1cc(-n2ccc3cc(C#N)cnc32)ncc1C(=O)NC[C@@H](F)C(C)(C)O (single isomer, unassigned) [Example 427]"
assay_result = 8.55

[[record]]
molecule = "CC(C)(O)[C@H](F)CNC(=O)c1cnc(-n2ccc3cc(C#N)cnc32)cc1Nc1ccc(-n2ccnc2)cc1"
assay_result = 8.00

[[record]]
molecule = "CC(C)(O)[C@H](F)CNC(=O)c1cnc(-n2ccc3cc(C#N)cnc32)cc1NCCN1CCOCC1"
assay_result = 8.40

[[record]]
molecule = "CC(C)(O)[C@H]1CC[C@H](NC(=O)c2cnc(-n3ncc4cc(C#N)cnc43)cc2Nc2cnn(CC(F)F)c2)CC1"
assay_result = 8.07

[[record]]
molecule = "CC(C)(O)[C@H](F)CNC(=O)c1cnc(-n2ncc3cc(C#N)cnc32)cc1NC1COCC1(F)F (stereo partly drawn)"
assay_result = 8.26

[[record]]
molecule = "CC(C)(O)[C@H](F)CNC(=O)c1cnc(-n2ncc3cc(C(N)=O)cnc32)cc1Nc1ccc2ncoc2c1"
assay_result = 8.80

[[record]]
molecule = "CC(C)NC(=O)[C@H]1CC[C@H](Nc2cc(-n3ncc4cc(C#N)cnc43)ncc2C(=O)NC[C@@H](F)C(C)(C)O)CC1"
assay_result = 8.19

[[record]]
molecule = "CC(C)Nc1cc(-n2ccc3cc(CNC(=O)CC4CCOCC4)cnc32)ncc1C(=O)NC[C@@H](F)C(C)(C)O"
assay_result = 7.85

[[record]]
molecule = "Cn1nccc1Nc1cc(-n2ncc3cc(C#N)cnc32)ncc1C(=O)NC[C@@H](F)C(C)(C)O"
assay_result = 7.76

[[record]]
molecule = "CC(C)(O)[C@H](F)CNC(=O)c1cnc(-n2ncc3cc(C#N)cnc32)cc1Nc1cc(-c2ccccc2)n[nH]1"
assay_result = 8.44

[[record]]
molecule = "CC(C)(O)[C@H](F)CNC(=O)c1cnc(-n2ccc3cc(C#N)cnc32)cc1Nc1cccc(S(N)(=O)=O)c1"
assay_result = 8.72

[[record]]
molecule = "CC(C)Nc1cc(-n2ncc3cnc(N)nc32)ncc1C(=O)NC[C@@H](F)C(C)(C)O"
assay_result = 8.41

[[record]]
molecule = "CCCCNC(=O)c1cnc(-n2ncc3cc(C#N)c(N)nc32)cc1NC1COC1"
assay_result = 8.28

[[record]]
molecule = "CC(C)(O)[C@H](F)CNC(=O)c1cnc(-n2ccc3cc(C#N)cnc32)cc1N[C@@H]1COC[C@H]1O [Example 456]"
assay_result = 8.32

[[record]]
molecule = "CC(C)(O)[C@H](F)CNC(=O)c1cnc(N2CCc3cc(C#N)cnc32)cc1NC1COC1"
assay_result = 7.77

[[record]]
molecule = "CC(C)(O)[C@H](F)CNC(=O)c1cnc(-n2ncc3cc(C#N)cnc32)cc1NCCCF"
assay_result = 8.28

[[record]]
molecule = "CC(C)(O)[C@H](F)CNC(=O)c1cnc(-n2ncc3cc(C#N)cnc32)cc1Nc1cccc(C#N)c1F"
assay_result = 8.48

[[record]]
molecule = "CCOC(=O)N1CC(Nc2cc(-n3ncc4cc(C#N)cnc43)ncc2C(=O)NC[C@@H](F)C(C)(C)O)C1"
assay_result = 8.17

[[record]]
molecule = "C[C@H](F)CNc1cc(-n2ncc3cc(C#N)c(N)nc32)ncc1C(=O)NC[C@@H](F)C(C)(C)O"
assay_result = 8.72

[[record]]
molecule = "COC(=O)N1CC[C@@H](Nc2cc(-n3ccc4cc(C#N)cnc43)ncc2C(=O)NC[C@@H](F)C(C)(C)O)C1"
assay_result = 8.92

[[record]]
molecule = "CC(C)(O)[C@H](F)CNC(=O)c1cnc(-n2ccc3cc(C#N)cnc32)cc1N[C@H]1C[C@H](C(C)(C)O)C1"
assay_result = 8.80

[[record]]
molecule = "CC(C)(F)[C@H](F)CNC(=O)c1cnc(-n2ncc3cc(C#N)cnc32)cc1NC12CC3CC(CC(O)(C3)C1)C2"
assay_result = 8.52

[[record]]
molecule = "COc1cnc(NC(=O)c2cnc(-n3ncc4cc(C#N)cnc43)cc2NC(C)C)cn1"
assay_result = 7.70

[[record]]
molecule = "CC(C)C(O)CNc1cc(-n2ncc3cc(C#N)cnc32)ncc1C(=O)NC[C@@H](F)C(C)(C)O (stereo partly drawn)"
assay_result = 7.81

